In this section, each of the molecules is paired with its reported GFP response relative to DMSO.
# TEST DESCRIPTION: LAP4-GFP expression modulators in yeast, confirmation, cell-based, cherry picks, flow cytometry, mother/daughter gates (AID 2271);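 also: ratio of sample to DMSO plate mean so 100% equals DMSO level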
# RECORDED CONDITIONS: S. cerevisiae LAP4-GFP strain, 3 h, measured here: daughter cell gate response, at 10 µM, stronger effect = higher value, 100 means same as DMSO control

Some solved cases for reference:
# MOLECULE, GFP response relative to DMSO
measured = [
    ("O=C(O)Cn1cc(/C=C/[N+](=O)[O-])c2ccccc21", "101%"),
    ("COc1ccc(-c2csc(N(CC(C)C)C(=O)c3ccco3)n2)cc1", "101%"),
    ("COc1ccc(Cl)cc1C(Nc1cccnc1)c1ccc2cccnc2c1O (stereo unspecified)", "109%"),
]

Look up GFP response relative to DMSO of Cc1cccc(Nc2nc(-c3ccccn3)cs2)n1 and report it.
138%

Report measured GFP response relative to DMSO; entry is COC(=O)c1ccc(N2C(=O)CC(SCCN)C2=O)cc1 (stereo unspecified)
102%

// fetch GFP response relative to DMSO given entry O=C(Nc1cccnc1)c1ccc(-c2ccc(Cl)cc2)o1
100%

Query GFP response relative to DMSO for O=S(=O)(/N=C(/Nc1ccc(F)cc1F)c1ccc(Cl)cc1)c1ccccc1
96.5%

These measurements were taken from PubChem BioAssay.
